# study.system: TEAD3 YAP50-100 (Homo sapiens, UniProt Q99594)
# Sequence (Q99594 216-435 limits assumed): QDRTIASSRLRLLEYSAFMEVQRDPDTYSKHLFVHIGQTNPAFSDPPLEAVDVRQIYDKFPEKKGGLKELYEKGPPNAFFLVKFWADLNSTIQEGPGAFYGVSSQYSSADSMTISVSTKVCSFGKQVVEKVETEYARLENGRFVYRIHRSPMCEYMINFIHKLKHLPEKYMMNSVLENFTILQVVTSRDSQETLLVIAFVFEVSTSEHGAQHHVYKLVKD
# assay: TEAD3:YAP50-100 protein-protein interaction HTRF (TR-FRET) assay
# experimental.conditions: His-tagged TEAD YAP binding domain (aa 217-447), biotinylated YAP peptide aa 50-100; 30 min pre-incubation, 60 min at room temperature; read-out: TEAD3 YAP50-100 HTRF WuXi EC50
Reported pEC50 values for the following molecules.
Please keep in mind that pEC50 is minus log10 of the molar concentration; only the number is needed.

1. O=C(c1cnn2c(=O)cc(-c3ccc(C4CCCCC4)cc3)[nH]c12)N1CC[C@@H]1CF [Example 43]: 7.55

Can you look up the measured pEC50 of CC1(F)CN(C(=O)c2cnn3c(=O)cc(-c4ccc(C5CCCCC5)cc4)[nH]c23)C1 [Example 40] for me?
7.73

Please do the same for O=C(c1cnn2c(=O)cc(-c3ccc(C4CCCCC4)cc3)[nH]c12)N1CC(CF)C1 [Example 41] as well.
8.00

Another: CCOC(=O)c1cnn2c(=O)cc(-c3ccc(C4CCC(F)(F)CC4)cc3)[nH]c12 [Example 1]
7.39

Please do the same for CN(C)C(=O)c1cnn2c(=O)cc(-c3ccc(C4CCCCC4)cc3)[nH]c12 [Example 7] as well.
7.74

Record: CCNC(=O)c1cnn2c(=O)cc(-c3ccc(Oc4ccccc4)cc3)[nH]c12 [Example 17]
5.30

###

# study.system: TEAD2 YAP50-100 (Homo sapiens, UniProt Q15562)
# Sequence (Q15562 217-447): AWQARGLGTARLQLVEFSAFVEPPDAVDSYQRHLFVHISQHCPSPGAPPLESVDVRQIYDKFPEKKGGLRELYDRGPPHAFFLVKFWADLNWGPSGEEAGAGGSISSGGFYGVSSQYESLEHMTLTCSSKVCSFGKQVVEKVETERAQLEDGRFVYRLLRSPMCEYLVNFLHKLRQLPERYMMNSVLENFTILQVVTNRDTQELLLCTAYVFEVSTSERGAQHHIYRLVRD
# assay: TEAD2:YAP50-100 protein-protein interaction HTRF (TR-FRET) assay
# experimental.conditions: His-tagged TEAD YAP binding domain (aa 217-447), biotinylated YAP peptide aa 50-100; 30 min pre-incubation, 60 min at room temperature; read-out: TEAD2 YAP50-100 HTRF WuXi EC50
measurement.name: EC50 (nM)
Respond with the bare value in nM.

Sample records with EC50:
1) CN(C)C(=O)c1cnn2c(=O)cc(-c3ccc(C4CCCCC4)cc3)[nH]c12: 87
2) C[C@H]1[C@@H](CF)CN1C(=O)c1cnn2c(=O)cc(-c3ccc(C4CCCCC4)cc3)[nH]c12 (single isomer, unassigned): 8
3) CCOC(=O)c1cnn2c(=O)cc(-c3ccc(Oc4ccccc4)c(C)c3)[nH]c12: 747
4) CCOC(=O)c1cnn2c(=O)cc(-c3ccc(OC(C)C)cc3)[nH]c12: 4040
5) CC1CN(C(=O)c2cnn3c(=O)cc(-c4ccc(C5CCCCC5)cc4)[nH]c23)C1: 11

Could you share which EC50 value was measured for O=C(c1cnn2c(=O)cc(-c3ccc(-c4ccccc4)cc3)[nH]c12)N1CCC1 ?
1630

Also O=C(c1cnn2c(=O)cc(-c3ccc(C4CCCCC4)cc3)[nH]c12)N1CC(C(F)(F)F)C1 ?
295

Entry CCOC(=O)c1cnn2c(=O)cc(-c3ccc(N(C)CC4CC4)cc3)[nH]c12 please
3700

###

# study.system: TEAD3 YAP50-100 (Homo sapiens)
# assay: TEAD3:YAP50-100 protein-protein interaction HTRF (TR-FRET) assay
# experimental.conditions: His-tagged TEAD YAP binding domain (aa 217-447), biotinylated YAP peptide aa 50-100; 30 min pre-incubation, 60 min at room temperature; read-out: TEAD3 YAP50-100 HTRF WuXi EC50
EC50 for assorted compounds
Please reply with the bare figure in nM and do not write the unit itself.

Item CCOC(=O)c1cnn2c(=O)cc(-c3ccc(OC(C)C)cc3)[nH]c12 [Example 31] has what recorded EC50?
944
